Experiment: Thermostability, ProteoStat Thermal Shift Stability Kit, temperature of aggregation
Assay type: physicochemical
Details: pH 5.0; NS = protein not soluble
observation.type: Tagg pH 5.0

[[record]]
molecule = "SEQID-00502: protein of the 168 nutritive polypeptide library (protein, Glycine max, protein of the 168 nutritive polypeptide library) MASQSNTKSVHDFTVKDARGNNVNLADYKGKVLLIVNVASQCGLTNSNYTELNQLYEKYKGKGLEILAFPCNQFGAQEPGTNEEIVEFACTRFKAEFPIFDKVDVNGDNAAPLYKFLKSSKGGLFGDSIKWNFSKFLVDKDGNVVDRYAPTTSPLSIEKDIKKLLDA"
result = 77

[[record]]
molecule = "SEQID-00485: nutritive polypeptide naturally produced in Chickpea, recombinantly expressed in E. coli (protein, listed as Cicer arietinum) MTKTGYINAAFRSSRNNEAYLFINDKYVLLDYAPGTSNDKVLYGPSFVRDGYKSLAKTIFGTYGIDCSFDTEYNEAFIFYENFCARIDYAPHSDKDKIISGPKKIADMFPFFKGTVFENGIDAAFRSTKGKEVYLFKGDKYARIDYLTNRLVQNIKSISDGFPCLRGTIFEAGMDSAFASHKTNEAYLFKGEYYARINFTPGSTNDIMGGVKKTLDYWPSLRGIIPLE"
result = 31.5

[[record]]
molecule = "SEQID-00622: protein of the 168 nutritive polypeptide library (protein, listed as Oryza sativa, subsp. japonica, protein of the 168 nutritive polypeptide library) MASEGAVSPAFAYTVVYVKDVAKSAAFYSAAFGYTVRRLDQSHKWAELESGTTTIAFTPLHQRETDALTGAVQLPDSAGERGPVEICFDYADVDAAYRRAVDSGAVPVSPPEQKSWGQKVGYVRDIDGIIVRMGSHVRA"
result = 42.5

